# System: NB7 (Neuroblastoma);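 also: after 72 h of two-drug dosing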
# protocol-summary: Bliss excess, mean over the matrix (fraction); higher = more synergy
observed-property: Bliss excess
Answer with the value's number alone.

compound	observed-property	quantitative-result
CCN(CCO)CCCOc1ccc2c(Nc3cc(CC(=O)Nc4cccc(F)c4)[nH]n3)ncnc2c1 [AZD2811] + O=C(c1cc(Cc2n[nH]c(=O)c3ccccc23)ccc1F)N1CCN(C(=O)C2CC2)CC1 [Olaparib] (first compound max 1 µM, 7x7, partner max 10 µM)	Bliss excess	0.0598
CN(CCO)CC[C@H](CSc1ccccc1)Nc1ccc(S(=O)(=O)NC(=O)c2ccc(N3CCC([C@@H](O)c4ccccc4-c4ccc(Cl)cc4)CC3)cc2)cc1S(=O)(=O)C(F)(F)F [AZD4320] + CS(=O)(=O)CCNCc1ccc(-c2ccc3ncnc(Nc4ccc(OCc5cccc(F)c5)c(Cl)c4)c3c2)o1 [Lapatinib] (first compound max 1 µM, 7x7, partner max 10 µM)	Bliss excess	0.0034
Cc1nc(Nc2ncc(C(=O)Nc3c(C)cccc3Cl)s2)cc(N2CCN(CCO)CC2)n1 [Dasatinib] + CC(=O)Nc1cccc(-n2c(=O)n(C3CC3)c(=O)c3c(Nc4ccc(I)cc4F)n(C)c(=O)c(C)c32)c1 [Trametinib] (first compound max 2 µM, 7x7, partner max 1 µM)	Bliss excess	0.0262
Cn1cnc2c(F)c(Nc3ccc(Br)cc3Cl)c(C(=O)NOCCO)cc21 [Selumetinib] + C[C@@H]1COCCN1C2=NC(=NC(=C2)C3(CC3)[S@](=N)(=O)C)C4=C5C=CNC5=NC=C4 [AZD6738] (first compound max 10 µM, 7x7, partner max 10 µM)	Bliss excess	-0.0257
CC(=O)c1c(C)c2cnc(Nc3ccc(N4CCNCC4)cn3)nc2n(C2CCCC2)c1=O [Palbociclib] + Cc1c2c(nn1C)CSCc1cc(n(C)n1)CSc1cc(c3ccccc3c1)OCCCc1c(C(=O)O)n(C)c3c-2c(Cl)ccc13 [AZD5991] (first compound max 10 µM, 7x7, partner max 1 µM)	Bliss excess	0.054

Could you share what Bliss excess was measured for Cc1cc2ncnn2cc1Nc1ncc2c(n1)n(C1CCOCC1)c(=O)n2C [AZD7648] + CN(C)CCCOc1ccc(-c2ccc3ncc4c(c3c2)n(C2CCOCC2)c(=O)n4C)cn1 [AZD0156] (first compound max 10 µM, 7x7, partner max 1 µM) , tested on NB7 (Neuroblastoma)?;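 also: after 72 h of two-drug dosing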
0.0303

Could you share what Bliss excess was measured for Cn1cnc2c(F)c(Nc3ccc(Br)cc3Cl)c(C(=O)NOCCO)cc21 [Selumetinib] + CC(C)n1c(=O)n(C)c2cnc3cc(F)c(-c4ccc(OCCCN5CCCCC5)nc4)cc3c21 [AZD1390] (first compound max 10 µM, 7x7, partner max 0.3 µM) , tested on NB7 (Neuroblastoma)?;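 also: after 72 h of two-drug dosing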
-0.0326

----------
In this section, each of the molecules is paired with its reported combination Emax.
# System: NCI-N87 (Gastric Carcinoma)
# protocol-summary: combination Emax (second highest fraction inhibited in the dose matrix, 72 h); higher = more inhibition; extreme values may be limits of the assay
Answer with the value's number alone.

Solved cases (2 shown):
molecule	combination Emax
COc1nnc2ccc(N3CCC(c4ccc(OCCN5CCN(C)C(=O)[C@H]5C)cc4)CC3)nn12 [AZD5153] + C=CCn1c(=O)c2cnc(Nc3ccc(N4CCN(C)CC4)cc3)nc2n1-c1cccc(C(C)(C)O)n1 [AZD1775] (first compound max 1 µM, partner max 1 µM)	0.717
Cc1cc2ncnn2cc1Nc1ncc2c(n1)n(C1CCOCC1)c(=O)n2C [AZD7648] + C[C@@H]1COCCN1C2=NC(=NC(=C2)C3(CC3)[S@](=N)(=O)C)C4=C5C=CNC5=NC=C4 [AZD6738] (first compound max 10 µM, 7x7, partner max 10 µM)	0.718

# next molecule below
I am curious: what combination Emax value has been reported for CC1(C)CCC(CN2CCN(c3ccc(C(=O)NS(=O)(=O)c4ccc(NCC5CCOCC5)c([N+](=O)[O-])c4)c(Oc4cnc5[nH]ccc5c4)c3)CC2)=C(c2ccc(Cl)cc2)C1 [Venetoclax] + CN(C)CCCOc1ccc(-c2ccc3ncc4c(c3c2)n(C2CCOCC2)c(=O)n4C)cn1 [AZD0156] (first compound max 1 µM, 7x7, partner max 1 µM) ?
0.461
